- TARGET_ENTITY: CRF2R (Homo sapiens)
- Sequence (Q13324 whole entry, species assumed): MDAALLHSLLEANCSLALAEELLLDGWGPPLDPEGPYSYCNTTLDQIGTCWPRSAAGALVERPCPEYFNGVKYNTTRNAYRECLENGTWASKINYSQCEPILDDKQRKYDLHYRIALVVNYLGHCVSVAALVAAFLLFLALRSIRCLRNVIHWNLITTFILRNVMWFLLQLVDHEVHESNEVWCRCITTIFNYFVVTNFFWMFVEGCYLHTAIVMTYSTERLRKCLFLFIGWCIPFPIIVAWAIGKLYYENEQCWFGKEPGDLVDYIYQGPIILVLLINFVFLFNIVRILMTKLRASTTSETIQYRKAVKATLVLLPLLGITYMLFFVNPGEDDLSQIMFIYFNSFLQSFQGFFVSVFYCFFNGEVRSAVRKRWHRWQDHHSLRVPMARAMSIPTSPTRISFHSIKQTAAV
- TEST_NAME: CRF2R agonist activity (EC50 and Emax), called comparative CRF binding
- Format: cell-based
- RUN_CONDITIONS: CRF2R; read-out: CRF2R EC50
pEC50: −log10 of the molar value. Ends that are not written are not given here.
READOUT_LABEL: pEC50

Give a short answer stating reported pEC50 for NDDPPISIDLPFQLLRNMIEMARIENEREQAGLNAKYLAEV-NH2 [compound 258] . ≤ 7.00

Input SQEPPISLDLPLELLREVLEMTKADQLAQQAHSNRKLLDIA-NH2 [compound 89] , output reported pEC50. ≤ 7.00

Answer with the recorded pEC50 for the substance listed here: SQEPPISLDLPLGLLREVLEMTKADQLAQQAHSNRKLLDIA-NH2 [compound 90] ≤ 7.00
